Assay: Log water solubility of preservatives
Condition info: logarithm base 10 of molar solubility at 25° C.; from experimental solubility or Chemsilico CS log WSo-3.0
Threshold rule: Log (water Solubility in mol/L) greater than or equal to -0.8 mol/L is TRUE; below that, FALSE.

// below: answered compounds
{"columns": ["Compound", "Qualitative label"],
 "data": [
  ["OCc1ccccc1 [benzyl Alcohol]", "TRUE"],
  ["C=CCCCCCCCCC(=O)O [Undecylenic Acid]", "FALSE"],
  ["OCCc1ccccc1 [phenethyl alcohol]", "FALSE"],
  ["CCCCCCC(O)CO (stereo not shown) [caprylyl glycol]", "FALSE"],
  ["CCOC(=O)c1ccc(O)cc1 [ethyl paraben]", "FALSE"]
]}

Hi team, for O=C(O)c1ccccc1O [Salicylic acid] , is the recorded Log (water Solubility in mol/L) at or above -0.8 mol/L? FALSE

Answer whether Log (water Solubility in mol/L) of C/C=C/C=C/C(=O)O [sorbic acid] is greater than or equal to -0.8 mol/L. TRUE
